# System: PPARg:RXRa 90nM:30nM, anti-RXR (NR concentration 90 nM, RXRa partner concentration 30 nM)
# method: PBM binding z-score (relative to random genomic background probes); higher = stronger binding; sequences stand for … in GC…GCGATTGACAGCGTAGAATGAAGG
Cut-off 4 on PBM binding z-score, inclusive. At or above means true (1); below means false (0).

Study these solved cases before continuing.
| sequence_input | class_label |
| --- | --- |
| CAAACTAGGTCACATAGGTCAAAGTCCGTGCGTA | true (1) |
| TAGCCAAGGTCATGCGGGCCAGTATAGTGTCGGC | false (0) |
| ATATGTAGGTTAAGGGTCATTCGGGTTGGTTCGC | true (1) |
| CCTTACGGTTCACTCCAGGTTATAGCATCGGAGT | false (0) |
| CATACAGGGTCAGCTAGGCCAGAGTGGGGACGGC | false (0) |

## Task Hi team, for ACTTACGGGTCAACGAGGTTATATCACGCGTATA , is the recorded PBM binding z-score at or above 4?
## Result false (0)

* * *

// values below are reported PBM binding z-score
# Test system: RXRa DBDmut IVT, anti-RXR (DBD mutation: RXRa K156A/R161A, NR concentration 90 nM)
# method: PBM binding z-score (relative to random genomic background probes); higher = stronger binding; sequences stand for … in GC…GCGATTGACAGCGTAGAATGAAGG
Number only, please.

Worked examples, 5 sequences total:
| sequence_input | system | PBM binding z-score |
| --- | --- | --- |
| TTACCAAGCTGAGCTGAGGTCGTTGATCCAACTC | RXRa DBDmut IVT, anti-RXR (DBD mutation: RXRa K156A/R161A, NR concentration 90 nM) | 0.00802 |
| CCGGCTGGGGCAGAAAGGTTACCATACCATCCGG | RXRa DBDmut IVT, anti-RXR (DBD mutation: RXRa K156A/R161A, NR concentration 90 nM) | -1.28 |
| ATCACTAGGTAACAAGTTCAGTGAAAGAGAGGAC | RXRa DBDmut IVT, anti-RXR (DBD mutation: RXRa K156A/R161A, NR concentration 90 nM) | 1.12 |
| ACAACGAGGGCAATGAGTTGATAGCACGGGTGGC | RXRa DBDmut IVT, anti-RXR (DBD mutation: RXRa K156A/R161A, NR concentration 90 nM) | 2.02 |
| GATATTAGTTGAAAGGGCAACCGAATGATTCTCG | RXRa DBDmut IVT, anti-RXR (DBD mutation: RXRa K156A/R161A, NR concentration 90 nM) | 1.04 |

Entry under test: CCTTACGGGTCACGAGATTATAGCACGACGAGCG . Its PBM binding z-score was 1.95

What the record says about CCTACTGGGCCAACGGTCATTGATTCCAATGCTC : PBM binding z-score is -0.454

For this sequence ( CCTATTAGTTGACCATACGGGCAACCGAAGCTCG ), measured PBM binding z-score is 0.337

Kindly note the recorded PBM binding z-score for ATGGAAAGGTCGACGAGGTGAGTATACACCGTTT , which is 0.942

get_value(item= ATATGTAAGTTAAGGGTCATTCAGGTTGGTTCGC , readout=PBM binding z-score) returns 2.13

Data point: TATCGGAGGACACGAAAGGTCAGAGCTCGACATC ; PBM binding z-score = 0.361

In plain terms, GCTGCTAGGTCAACTGATGGTCTGCTAAAGCTCG has a documented PBM binding z-score of 1.78

* * *

# Test system: PPARg DBDmut IVT, anti-PPARg (DBD mutation: PPARg1 K132A/R137A, NR concentration 270 nM)
# method: PBM binding z-score (relative to random genomic background probes); higher = stronger binding; sequences stand for … in GC…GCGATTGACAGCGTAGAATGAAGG
Measured PBM binding z-score values are reported for all entries that follow.
Please give only the number in your answer, with no unit.

Example entries begin here.
| sequence_input | PBM binding z-score |
| --- | --- |
| CCTGCTAGGTAAATGGTCAGCTAAAGCAGCTCGC | -1.53 |
| AGTCAAAGTTCACTACGTAACGTAAGATTCAGCT | 1.04 |
| CCGAATGGGGCAGAAAGGTTACCATACCATCCGG | -0.938 |
| CGTCCAAGGGCAAGGTCAGTGAAAGAGACTCGAA | -1.55 |
| AGAATGAGGCTAAGATCAGGGAAACAGAATACAT | 0.0133 |

get_value(item= TAGCCTAGGTCATTGGGCCAGTTTAGTACGCATC , readout=PBM binding z-score) returns 0.202

The sequence listed as CCAGACAGGTGAGAAGGTAACTCGGCCTCGATTA has a reported PBM binding z-score of -1.05

The sequence GCTAGATGGTCAGTAAAAGGTCACACACCGGTCG showed PBM binding z-score equal to -0.0918

Noted for TCTGCTAAGTCAACGATGGTCAGCTAATCTGCTA : its PBM binding z-score reads -0.943

# PBM binding z-score of ATATGTAGGTTAAGGGTCATTCACGTTGGTTCGC = 2.65

# sequence CGAACTAGTTCATTGACAGGACAGTGAATAGTAA ; its PBM binding z-score = 0.333

According to the records, this sequence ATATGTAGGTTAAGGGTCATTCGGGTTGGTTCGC displays PBM binding z-score of 4.92

* * *

The entries below are paired with their reported PBM binding z-score.
# System: PPARg DBDmut IVT, anti-PPARg (DBD mutation: PPARg1 K132A/R137A, NR concentration 270 nM)
# method: PBM binding z-score (relative to random genomic background probes); higher = stronger binding; sequences stand for … in GC…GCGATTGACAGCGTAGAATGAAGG
A bare number is all that is needed in reply.

| sequence_input | system | reported_result |
| --- | --- | --- |
| TAGCCTAGGTCATTCAGCGGCCAGTATAGAAAGC | PPARg DBDmut IVT, anti-PPARg (DBD mutation: PPARg1 K132A/R137A, NR concentration 270 nM) | -0.00854 |
| ACTAGTTGGTCAGCTGAGGGCACACACAATTCGG | PPARg DBDmut IVT, anti-PPARg (DBD mutation: PPARg1 K132A/R137A, NR concentration 270 nM) | 0.654 |
| CTTACAGGGTCAGCTAGGCCAGAGTAGGGACGGC | PPARg DBDmut IVT, anti-PPARg (DBD mutation: PPARg1 K132A/R137A, NR concentration 270 nM) | -0.1 |
| CATACAGGGTCAGCTAGGCCAGAGGAGGGACGGC | PPARg DBDmut IVT, anti-PPARg (DBD mutation: PPARg1 K132A/R137A, NR concentration 270 nM) | 1.1 |
| ATATGTAGGTTAACGGTCATTCAGGTTGGTTCGC | PPARg DBDmut IVT, anti-PPARg (DBD mutation: PPARg1 K132A/R137A, NR concentration 270 nM) | 2.01 |
| CCGACTGGGGCAAAGGTTACCCTACTCAGTACGA | PPARg DBDmut IVT, anti-PPARg (DBD mutation: PPARg1 K132A/R137A, NR concentration 270 nM) | -0.866 |
| CCTGACGGGTCACTGACAGGTTATAGCATTTGGA | PPARg DBDmut IVT, anti-PPARg (DBD mutation: PPARg1 K132A/R137A, NR concentration 270 nM) | -0.292 |
| TTACCAAGGTGAAAGGTCCTTGATGCACGCCTTG | PPARg DBDmut IVT, anti-PPARg (DBD mutation: PPARg1 K132A/R137A, NR concentration 270 nM) | 0.133 |
| GTACCAAGGTGAATAGATCGTTGATGAGTAGGCG | PPARg DBDmut IVT, anti-PPARg (DBD mutation: PPARg1 K132A/R137A, NR concentration 270 nM) | 0.448 |
| AGAATGAGGTTATACGTAGATCAGGTAAGAAAGT | PPARg DBDmut IVT, anti-PPARg (DBD mutation: PPARg1 K132A/R137A, NR concentration 270 nM) | 0.947 |

get_value(item= CAACCTAGGTCAGGGCCAGTATAGGAGGAACGTT , readout=PBM binding z-score) returns 0.168

Form field PBM binding z-score, entry AGAAGGAGGGCAATGAGTTGATAGCACGGGTGGC : -0.352

* * *

# Test system: VDR:RXRa (NR concentration 270 nM, RXRa partner concentration 90 nM)
# method: PBM binding z-score (relative to random genomic background probes); higher = stronger binding; sequences stand for … in GC…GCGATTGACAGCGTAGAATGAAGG
Reported PBM binding z-score by item:

Solved entries (count: 4):
| sequence_input | PBM binding z-score |
| --- | --- |
| ATCTCTAGATAAAGTTCAGTGAAAGATCGATAGA | 1.03 |
| ATCTCTAGGTAAAGATAGTTCCGTGAATGCAAAT | -0.0941 |
| GCTTACGGGTCAAAGGTTCTAGCATGAATAGAAT | 4.42 |
| CGATCTAGGTCATCCAGGACAGTGAATACATTGA | 4.67 |

// sample AATACAGGGTCACTAGTCCAGAGTAGGTACGAAT , its PBM binding z-score was 4.05

Measured PBM binding z-score of ATATGTAGGTTAGTTGGGGTCATTCAGACTAGGC : 6.27
